Tested on: RPMI-8226 leukemia
Protocol summary: NCI-60 one-dose screen, 48 h (100 = growth as untreated, 0 = no growth, -100 = all killed)
Run conditions: 10 µM unless noted
Compounds without any hit were thinned out: in the full panel of roughly 83,000, 20% have a hit.
Measured quantity: growth (%)
Response body: numeric value in %, unit text excluded.

Request: I have this compound here, `c1ccc2c(c1)OC1OC2Oc2ccccc21` , and I need its recorded growth.
Response: 106

Request: Could you do the same for `COc1ccc2cc1Oc1ccc(cc1)C[C@H]1c3cc(c(OC)cc3CCN1C)Oc1c(OC)c(OC)cc3c1[C@H](C2)N(C)CC3` , please?
Response: -31.2

Request: Could you do the same for CN(C)CC1CCCCCC(CN(C)C)C1=O (stereo unspecified) , please?
Response: 13.1
